biological target: Kdr (Homo sapiens); construct: Kinases are expressed as either kinase domains or full length constructs; made in house; test: Kinase inhibition assay (33P transfer), Kdr; type: biochemical; details: KDR-1
Sequence (P35968 20-1356, species assumed): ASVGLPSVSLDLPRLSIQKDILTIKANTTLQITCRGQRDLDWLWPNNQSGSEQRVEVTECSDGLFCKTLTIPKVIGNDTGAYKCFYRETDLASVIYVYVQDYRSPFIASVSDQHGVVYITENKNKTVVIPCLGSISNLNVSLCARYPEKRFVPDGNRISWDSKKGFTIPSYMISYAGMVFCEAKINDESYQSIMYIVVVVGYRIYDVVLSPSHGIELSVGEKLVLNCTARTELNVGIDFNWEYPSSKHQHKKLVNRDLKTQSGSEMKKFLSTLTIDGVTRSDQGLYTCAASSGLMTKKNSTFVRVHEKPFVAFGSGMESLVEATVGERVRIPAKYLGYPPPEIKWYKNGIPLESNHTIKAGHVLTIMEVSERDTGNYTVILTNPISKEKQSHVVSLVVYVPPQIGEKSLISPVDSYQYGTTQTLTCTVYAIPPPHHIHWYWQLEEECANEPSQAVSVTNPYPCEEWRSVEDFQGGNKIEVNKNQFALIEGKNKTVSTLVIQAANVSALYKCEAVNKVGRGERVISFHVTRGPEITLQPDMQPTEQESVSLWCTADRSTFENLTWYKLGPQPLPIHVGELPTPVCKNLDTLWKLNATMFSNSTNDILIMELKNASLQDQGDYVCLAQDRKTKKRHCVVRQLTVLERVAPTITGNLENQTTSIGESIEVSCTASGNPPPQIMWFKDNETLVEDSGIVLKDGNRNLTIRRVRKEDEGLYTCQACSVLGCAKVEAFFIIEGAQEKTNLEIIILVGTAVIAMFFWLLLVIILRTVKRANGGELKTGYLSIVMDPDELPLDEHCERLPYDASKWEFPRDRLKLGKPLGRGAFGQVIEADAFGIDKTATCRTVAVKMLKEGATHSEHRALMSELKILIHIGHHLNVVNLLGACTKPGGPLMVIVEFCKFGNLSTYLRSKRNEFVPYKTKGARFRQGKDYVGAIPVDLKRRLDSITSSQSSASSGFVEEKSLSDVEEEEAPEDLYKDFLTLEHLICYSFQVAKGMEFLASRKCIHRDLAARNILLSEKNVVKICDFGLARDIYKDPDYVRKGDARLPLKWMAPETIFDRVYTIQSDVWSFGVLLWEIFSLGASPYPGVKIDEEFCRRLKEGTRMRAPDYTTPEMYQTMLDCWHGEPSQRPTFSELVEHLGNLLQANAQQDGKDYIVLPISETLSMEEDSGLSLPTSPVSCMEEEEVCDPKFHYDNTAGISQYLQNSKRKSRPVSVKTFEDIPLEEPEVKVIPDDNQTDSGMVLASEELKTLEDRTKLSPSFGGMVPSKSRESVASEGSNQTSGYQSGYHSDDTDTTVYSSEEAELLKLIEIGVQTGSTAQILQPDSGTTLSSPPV
Entries and their IC50 values follow.

>  <molecule>
COc1cc(Nc2ncnc(-n3c(NCc4ccc(O)cc4)nc4ccccc43)n2)cc(OC)c1OC [Compound 561]

>  <test-readout>
IC50

>  <meas-value>
< 0.801 µM

$$$$

Now let's try a different one.
[in] Would you please give the reported IC50 of Nc1nc2ccccc2n1-c1ncnc(Nc2ccccn2)n1 [Compound 659] with Kdr (Homo sapiens)?
[out] 7.89 to 11.5 µM

---

target: Lck (Homo sapiens); construct: Kinases are expressed as either kinase domains or full length constructs; made in house; test: Kinase inhibition assay (33P transfer), Lck; assay type: biochemical; conditions: read-out: Lck-1
Sequence (P06239 whole entry, species assumed, the tested form may be a part): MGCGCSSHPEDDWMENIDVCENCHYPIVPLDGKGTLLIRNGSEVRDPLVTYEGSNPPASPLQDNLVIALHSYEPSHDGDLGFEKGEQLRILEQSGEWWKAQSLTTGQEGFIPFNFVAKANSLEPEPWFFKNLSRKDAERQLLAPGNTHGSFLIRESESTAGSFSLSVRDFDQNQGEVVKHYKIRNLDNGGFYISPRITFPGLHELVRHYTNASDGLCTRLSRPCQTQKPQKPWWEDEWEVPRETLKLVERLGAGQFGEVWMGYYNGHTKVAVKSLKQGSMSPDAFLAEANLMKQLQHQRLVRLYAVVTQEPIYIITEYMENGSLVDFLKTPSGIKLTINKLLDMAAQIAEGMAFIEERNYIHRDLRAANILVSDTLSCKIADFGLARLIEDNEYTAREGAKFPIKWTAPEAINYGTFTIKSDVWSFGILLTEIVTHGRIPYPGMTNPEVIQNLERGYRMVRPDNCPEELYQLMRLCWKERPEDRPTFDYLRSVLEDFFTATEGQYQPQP
Quick list: IC50 per entry.

>  <structure-smiles>
CC(C)(C)c1cc(Nc2ncnc(Nc3cccc(CC(=O)O)c3)n2)[nH]n1

>  <target-under-test>
Lck (Homo sapiens)

>  <meas-value>
> 12.2 µM

$$$$
>  <structure-smiles>
CCN(CC)CCOc1cc(Nc2ncnc(-n3c(N)nc4ccccc43)n2)ccc1OC

>  <target-under-test>
Lck (Homo sapiens)

>  <meas-value>
0.892 to 5.35 µM

$$$$
>  <structure-smiles>
COc1cc(C)c(Nc2ncnc(-n3c(N)nc4ccccc43)n2)cc1OC

>  <target-under-test>
Lck (Homo sapiens)

>  <meas-value>
6.36 to 9.27 µM

$$$$

[in] Please list IC50 recorded for the molecule `Nc1nc2ccccc2n1-c1ncnc(Nc2ccccn2)n1`
[out] 7.89 to 11.5 µM

[in] Note down IC50 recorded for `NC(=O)c1ccc(Nc2ncnc(-c3cccnc3NCc3ccccc3)n2)cc1`
[out] 1.01 to 6.04 µM

[in] Note IC50 for the molecule shown: `COc1ccc(CNc2nc3ccccc3n2-c2ncnc(Nc3cc(OC)c(OC)c(OC)c3)n2)cc1`
[out] > 8.76 µM

[in] Give the value of IC50 reported for the following: `COc1cccc(Nc2ncnc(Nc3cc(-c4ccccc4)n[nH]3)n2)c1`
[out] 1.11 to 6.68 µM

[in] Fill in IC50 for record `COc1ccc([C@@H](C)Nc2nc3ccccc3n2-c2ncnc(Nc3cc(OC)c(OC)c(OC)c3)n2)cc1`
[out] 0.758 to 4.55 µM
